Overview of recorded inhibition at 5 µM for various compounds
Target of assay: Abl2 (Homo sapiens, UniProt P42684)
Construct: purchased Nanosyn (contract screening)
Sequence (P42684 whole entry): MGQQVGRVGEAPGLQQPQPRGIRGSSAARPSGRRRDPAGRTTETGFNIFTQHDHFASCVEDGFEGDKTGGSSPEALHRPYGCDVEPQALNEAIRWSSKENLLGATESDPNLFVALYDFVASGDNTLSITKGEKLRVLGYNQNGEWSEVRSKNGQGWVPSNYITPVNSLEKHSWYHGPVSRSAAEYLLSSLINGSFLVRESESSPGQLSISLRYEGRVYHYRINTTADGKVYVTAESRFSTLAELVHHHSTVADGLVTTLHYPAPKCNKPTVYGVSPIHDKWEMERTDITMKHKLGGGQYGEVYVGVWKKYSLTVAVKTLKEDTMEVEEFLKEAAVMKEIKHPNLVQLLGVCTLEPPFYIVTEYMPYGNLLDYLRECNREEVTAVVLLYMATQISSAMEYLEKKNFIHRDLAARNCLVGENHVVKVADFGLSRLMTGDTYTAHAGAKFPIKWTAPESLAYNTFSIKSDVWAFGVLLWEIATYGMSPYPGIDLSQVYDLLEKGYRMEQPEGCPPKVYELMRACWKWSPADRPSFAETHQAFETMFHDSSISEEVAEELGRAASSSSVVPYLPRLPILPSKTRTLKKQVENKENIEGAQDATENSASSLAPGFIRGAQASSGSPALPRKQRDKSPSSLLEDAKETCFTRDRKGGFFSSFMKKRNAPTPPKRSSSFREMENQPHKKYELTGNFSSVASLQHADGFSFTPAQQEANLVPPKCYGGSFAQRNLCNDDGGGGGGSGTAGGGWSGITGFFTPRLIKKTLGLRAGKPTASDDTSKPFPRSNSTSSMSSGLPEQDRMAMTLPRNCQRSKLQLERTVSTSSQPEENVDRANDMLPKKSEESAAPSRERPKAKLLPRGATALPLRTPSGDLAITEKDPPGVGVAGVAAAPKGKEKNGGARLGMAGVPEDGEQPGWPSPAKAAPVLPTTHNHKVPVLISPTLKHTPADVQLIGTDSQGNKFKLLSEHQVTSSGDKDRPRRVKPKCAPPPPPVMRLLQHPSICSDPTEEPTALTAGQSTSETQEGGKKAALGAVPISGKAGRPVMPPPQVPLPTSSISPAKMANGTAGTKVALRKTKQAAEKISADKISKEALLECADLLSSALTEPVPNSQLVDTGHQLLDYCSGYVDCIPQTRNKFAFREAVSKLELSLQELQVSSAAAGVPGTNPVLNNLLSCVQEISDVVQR
Assay: Kinase panel enzymatic inhibition assay (Nanosyn)
Assay type: biochemical
Test context: compound 5 μM; ATP at Km; 30-minute pre-incubation

Cc1ccc(NC(=O)c2cc(S(C)(=O)=O)n(-c3ccc(F)cc3)n2)cc1C#Cc1cnc2cccnn12
≥ 95%
Cc1ccc(NC(=O)c2cc([S+](C)[O-])n(-c3ccc(F)cc3)n2)cc1-c1cc(OCCO)nc(N2CCOCC2)c1 (centres unmarked)
< 79%
CCOC(=O)Nc1cn2nc(Nc3cc(NC(=O)c4cc(S(C)(=O)=O)n(-c5ccc(F)cc5)n4)ccc3C)ccc2n1
≥ 95%
Cc1ccc(NC(=O)c2cc([S+](C)[O-])n(-c3ccc(F)cc3)n2)cc1-c1cc(N2CCOCC2)c(=O)n(C)c1 (centres unmarked)
< 79%
Cc1ccc(NC(=O)c2cc(S(C)(=O)=O)n(-c3ccc(F)cc3)n2)cc1Nc1ccc2ncn(C)c(=O)c2c1
< 79%

Task: # query: inhibition at 5 µM of entry CCOC(=O)Nc1cn2nc(Nc3cc(NC(=O)c4cc([S+](C)[O-])n(-c5ccc(F)cc5)n4)ccc3C)ccc2n1 (centres unmarked)
Result: 80 to 89%

Task: Then Cc1ccc(NC(=O)c2cc([S+](C)[O-])n(-c3ccc(F)cc3)n2)cc1C#Cc1cnc2cccnn12 (centres unmarked) ?
Result: ≥ 95%

Task: Then CNC(=O)c1cc(Oc2ccc(F)c(NC(=O)c3cc([S+](C)[O-])n(-c4ccc(F)cc4)n3)c2)ccn1 (centres unmarked) ?
Result: < 79%

Task: Then Cc1ccc(NC(=O)c2cc([S+](C)[O-])n(-c3ccc(F)cc3)n2)cc1Nc1ccc2ncn(C)c(=O)c2c1 (centres unmarked) ?
Result: < 79%

Task: Then `Cc1ccc(NC(=O)c2cc(S(C)(=O)=O)n(-c3ccc(F)cc3)n2)cc1Nc1nccc(-c2cccnc2N)n1` ?
Result: ≥ 95%

Task: Then `CNC(=O)c1cc(Oc2ccc(NC(=O)c3cc(S(C)(=O)=O)n(-c4ccc(F)cc4)n3)c(F)c2)ccn1` ?
Result: < 79%

----------
Overview of recorded inhibition at 5 µM for various compounds
Target of assay: DDR1 (Homo sapiens, UniProt Q08345)
Construct: purchased Nanosyn (contract screening)
Sequence (Q08345 19-913): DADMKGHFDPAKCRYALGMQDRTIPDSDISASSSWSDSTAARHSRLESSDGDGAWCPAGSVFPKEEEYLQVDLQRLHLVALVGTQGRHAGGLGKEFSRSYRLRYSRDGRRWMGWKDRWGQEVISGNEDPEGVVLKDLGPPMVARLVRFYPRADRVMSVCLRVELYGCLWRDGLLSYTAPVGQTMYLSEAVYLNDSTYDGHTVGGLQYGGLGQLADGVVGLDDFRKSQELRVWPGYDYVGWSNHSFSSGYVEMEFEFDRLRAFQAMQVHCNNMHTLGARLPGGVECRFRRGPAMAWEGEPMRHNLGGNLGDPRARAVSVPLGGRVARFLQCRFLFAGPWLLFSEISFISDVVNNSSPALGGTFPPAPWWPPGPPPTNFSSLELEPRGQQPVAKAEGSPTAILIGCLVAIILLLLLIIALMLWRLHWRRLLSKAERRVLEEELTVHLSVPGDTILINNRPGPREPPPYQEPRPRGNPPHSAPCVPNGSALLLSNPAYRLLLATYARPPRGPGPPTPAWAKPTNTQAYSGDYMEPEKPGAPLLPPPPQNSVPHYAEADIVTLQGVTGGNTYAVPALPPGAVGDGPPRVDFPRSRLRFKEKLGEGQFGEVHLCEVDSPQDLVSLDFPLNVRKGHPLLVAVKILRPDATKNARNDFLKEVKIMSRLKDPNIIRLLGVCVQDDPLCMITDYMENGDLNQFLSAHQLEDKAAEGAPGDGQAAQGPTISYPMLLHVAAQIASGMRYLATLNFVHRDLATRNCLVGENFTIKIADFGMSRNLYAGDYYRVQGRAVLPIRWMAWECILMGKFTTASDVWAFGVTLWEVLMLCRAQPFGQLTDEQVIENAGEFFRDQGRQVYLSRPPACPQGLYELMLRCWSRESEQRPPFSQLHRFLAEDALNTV
Assay: Kinase panel enzymatic inhibition assay (Nanosyn)
Format: biochemical
Test context: compound 5 μM; ATP at Km; 30-minute pre-incubation

Task: # query: inhibition at 5 µM of entry Cc1ccc(NC(=O)c2cc([S+](C)[O-])n(-c3ccc(F)cc3)n2)cc1Nc1ccc2ncn(C)c(=O)c2c1 (stereo not shown) [Ex5]
Result: 90 to 94%

Task: Then Cc1ccc(NC(=O)c2cc(S(C)(=O)=O)n(-c3ccc(F)cc3)n2)cc1-c1cc(N2CCOCC2)c(=O)n(C)c1 [Ex12] ?
Result: 80 to 89%

Task: Then CSc1cc(C(=O)Nc2cc(Oc3ccnc(C(=O)NC4CNC4)c3)ccc2F)nn1-c1ccc(F)cc1 [Ex8] ?
Result: < 79%

Task: Then Cc1ccc(NC(=O)c2cc([S+](C)[O-])n(-c3ccc(F)cc3)n2)cc1C#Cc1cnc2cccnn12 (stereo not shown) [Ex6] ?
Result: ≥ 95%

----------
Overview of recorded inhibition at 5 µM for various compounds
Target of assay: FYN (Homo sapiens, UniProt P06241)
Construct: purchased Nanosyn (contract screening)
Sequence (P06241 whole entry): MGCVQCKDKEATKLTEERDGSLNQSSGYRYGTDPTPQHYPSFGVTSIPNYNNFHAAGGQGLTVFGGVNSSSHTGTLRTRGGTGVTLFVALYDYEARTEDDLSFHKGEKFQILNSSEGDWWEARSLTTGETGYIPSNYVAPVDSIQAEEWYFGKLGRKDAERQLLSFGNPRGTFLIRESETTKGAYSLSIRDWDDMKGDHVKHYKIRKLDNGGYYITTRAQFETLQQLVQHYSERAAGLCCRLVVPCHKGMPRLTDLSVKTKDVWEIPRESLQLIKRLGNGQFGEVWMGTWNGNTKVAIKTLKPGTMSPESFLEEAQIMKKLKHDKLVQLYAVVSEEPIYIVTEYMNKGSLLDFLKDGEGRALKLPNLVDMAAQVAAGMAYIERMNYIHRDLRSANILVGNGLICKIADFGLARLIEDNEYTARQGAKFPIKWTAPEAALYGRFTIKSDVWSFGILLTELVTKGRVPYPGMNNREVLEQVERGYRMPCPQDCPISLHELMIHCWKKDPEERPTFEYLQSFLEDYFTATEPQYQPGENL
Assay: Kinase panel enzymatic inhibition assay (Nanosyn)
Format: biochemical
Test context: compound 5 μM; ATP at Km; 30-minute pre-incubation

Cc1ccc(NC(=O)c2cc([S+](C)[O-])n(-c3ccc(F)cc3)n2)cc1-c1cc(N2CCOCC2)c(=O)n(C)c1 (stereo not shown)
< 79%
Cc1ccc(NC(=O)c2cc([S+](C)[O-])n(-c3ccc(F)cc3)n2)cc1C#Cc1cnc2cccnn12 (stereo not shown)
≥ 95%
CNC(=O)c1cc(Oc2ccc(F)c(NC(=O)c3cc([S+](C)[O-])n(-c4ccc(F)cc4)n3)c2)ccn1 (stereo not shown)
< 79%

Task: # query: inhibition at 5 µM of entry `Cc1ccc(NC(=O)c2cc(S(C)(=O)=O)n(-c3ccc(F)cc3)n2)cc1Nc1ccc2ncn(C)c(=O)c2c1`
Result: < 79%

The reported measurements were obtained from patent US20240400577A1.
